Assay: Pharmacokinetic analysis (intravenous and oral), Method B9
Assay type: in vivo
Details: Oral, 8 mg/kg; individual values
PROPERTY LABEL: Tmax

### Prompt Entry under review: CC(C)[C@@H]1NCCOc2ccccc2C#CCNC(=O)[C@@H](Cc2ccccc2)NC(=O)[C@H](C(C)O)N(C)C1=O (stereo partly shown) . Reported Tmax?
### Response 15/15/15

### Prompt Another: CC(C)[C@@H]1NCCOc2ccccc2C2CCC(C2)NC(=O)[C@@H](Cc2ccccc2)NC(=O)[C@H](C(C)O)N(C)C1=O (stereo partly shown)
### Response 30/30

### Prompt Another: CC(C)[C@@H]1NCCOc2cccc(F)c2C#CCNC(=O)[C@@H](Cc2ccccc2)NC(=O)[C@H](C(C)O)N(C)C1=O (stereo partly shown)
### Response 15/15/30

### Prompt Another: CC(C)[C@@H]1NCC2CCc3cccc(c3O2)CCCNC(=O)[C@@H](Cc2ccccc2)NC(=O)[C@H](C(C)O)N(C)C1=O (stereo partly shown)
### Response 15/30/15/15/15/15

###

Provide the reported pIC50 of each item.
Target: human ghrelin receptor (GRLN, growth hormone secretagogue receptor, hGHS-R1a) (Homo sapiens, UniProt Q92847)
Construct: purchased PerkinElmer BioSignal #RBHGHSM, lot#1887; host or cells: HEK-293 cells, stably transfected (membranes)
Sequence (Q92847 whole entry): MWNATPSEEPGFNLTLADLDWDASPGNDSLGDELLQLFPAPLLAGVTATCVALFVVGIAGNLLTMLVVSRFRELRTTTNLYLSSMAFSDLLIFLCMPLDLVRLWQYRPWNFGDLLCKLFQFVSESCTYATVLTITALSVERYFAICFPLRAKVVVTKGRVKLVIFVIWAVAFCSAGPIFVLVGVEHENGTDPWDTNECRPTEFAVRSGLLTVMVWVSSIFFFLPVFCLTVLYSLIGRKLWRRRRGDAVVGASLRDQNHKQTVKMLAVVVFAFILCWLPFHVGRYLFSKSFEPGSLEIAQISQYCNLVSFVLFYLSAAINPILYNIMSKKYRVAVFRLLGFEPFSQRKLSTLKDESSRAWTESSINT
Test: Competitive radioligand binding assay (ghrelin receptor), Method B1
Conditions: Ghrelin receptor binding activity, Method B1
pIC50: −log10 of the molar value.

### Prompt Entry under review: CC(O)[C@H]1C(=O)N[C@H](Cc2ccccc2)C(=O)N[C@H](C)CCc2cccnc2OCCN[C@@H](C2(C)CC2)C(=O)N1C (stereo partly shown) [Compound 1907] . Reported pIC50?
### Response 7.00 to 8.00

### Prompt Another: CC1CCc2ccccc2OCCNC(C(C)(C)C)C(=O)N(C)C(C(C)O)C(=O)NC(Cc2ccc(Cl)cc2)C(=O)N1 (stereo not shown) [Compound 1800]
### Response 7.00 to 8.00

### Prompt Another: CC[C@@H]1CCc2c(cccc2C(N)=O)OCCN[C@@H](C(C)C)C(=O)N(C)[C@@H](C(C)O)C(=O)N[C@H](Cc2ccccc2)C(=O)N1 (stereo partly shown) [Compound 1864]
### Response < 6.30

### Prompt Another: CC(O)[C@H]1C(=O)N[C@H](Cc2ccc(Cl)cc2)C(=O)N[C@@H](C)CCc2ccccc2O[C@H](C)CN[C@@H](C2CC2)C(=O)N1C (stereo partly shown) [Compound 1741]
### Response < 6.30

###

Assay: Metabolic stability in human liver microsomes, Method B8
Type: in vitro ADME
Conditions: human liver microsomes 0.8 mg/mL, 5 μM compound, 37° C.
Provide the reported HLM, metabolic stability in human liver microsomes of each item.
Return type: number; implicit unit μL/min/mg protein.

### Prompt Entry under review: CC[C@@H]1CCc2ccc(F)cc2OCCN[C@@H](C(C)C)C(=O)N(C)[C@@H](C(C)O)C(=O)N[C@H](Cc2c[nH]c3ccccc23)C(=O)N1 (some centres unmarked) [Compound 1505] . Reported HLM, metabolic stability in human liver microsomes?
### Response 51.5

### Prompt Another: CC(C)[C@@H]1NCCOc2cc(F)ccc2CC[C@@H](C)NC(=O)[C@@H](Cc2ccc(Cl)cc2)NC(=O)[C@H](C(C)O)N(C)C1=O (some centres unmarked) [Compound 1758]
### Response 90.4

### Prompt Another: CC(O)[C@H]1C(=O)N[C@H](Cc2c[nH]c3ccccc23)C(=O)N[C@H](C)C#Cc2ccc(F)cc2O[C@H](C)CN[C@@H](C2(C)CC2)C(=O)N1C (some centres unmarked) [Compound 1720]
### Response 23.2

### Prompt Another: CCC1CCc2ccc(F)cc2OCCNC(C2(C)CC2)C(=O)N(C)C(C(C)O)C(=O)NC(Cc2c[nH]c3ccccc23)C(=O)N1 (centres unmarked) [Compound 1703]
### Response 44.8

### Prompt Another: CC(C)[C@@H]1NCCOc2ccccc2CC[C@@H](C)NC(=O)[C@@H]([C@@H](C)c2ccccc2)NC(=O)[C@H](C(C)O)N(C)C1=O (some centres unmarked) [Compound 1390]
### Response 53

### Prompt Another: CC(C)[C@@H]1NCCOc2ccccc2CC[C@@H](C)NC(=O)[C@@H](Cc2ccc(F)c(F)c2)NC(=O)[C@H](C(C)O)N(C)C1=O (some centres unmarked) [Compound 1372]
### Response 60.8

### Prompt Another: CCC(C)C1NCCOc2ccccc2C=CCNC(=O)C(Cc2ccc(Cl)cc2Cl)NC(=O)C(C(C)O)N(C)C1=O (centres unmarked) [Compound 1761]
### Response 77.0

### Prompt Another: CCC(C)C1NCCOc2cc(F)ccc2C=CCNC(=O)C(Cc2ccc(Cl)cc2)NC(=O)C(C(C)O)N(C)C1=O (centres unmarked) [Compound 1739]
### Response 26.1

### Prompt Another: CC(C)[C@@H]1NCCOc2ccccc2CC[C@@H](C)NC(=O)[C@@H](Cc2cccc(Cl)c2)NC(=O)[C@H](C(C)O)N(C)C1=O (some centres unmarked) [Compound 1400]
### Response 54.2

### Prompt Another: CC(C)[C@@H]1NCCOc2ccccc2C2CCC(C2)NC(=O)[C@@H](Cc2c[nH]c3ccccc23)NC(=O)[C@H](C(C)O)N(C)C1=O (some centres unmarked) [Compound 1843]
### Response 33.7

### Prompt Another: COc1ccccc1C[C@H]1NC(=O)[C@H](C(C)O)N(C)C(=O)[C@H](C(C)C)NCCOc2ccccc2CC[C@@H](C)NC1=O (some centres unmarked) [Compound 1418]
### Response 32.2

### Prompt Another: CC(C)[C@@H]1NCCOc2ccc(F)cc2CCCNC(=O)[C@@H](Cc2ccccc2)NC(=O)[C@H](C(C)O)N(C)C1=O (some centres unmarked) [Compound 1377]
### Response 65.5

### Prompt Another: COc1cccc(C[C@H]2NC(=O)[C@H](C(C)O)N(C)C(=O)[C@H](C(C)C)NCCOc3ccccc3CC[C@@H](C)NC2=O)c1 (some centres unmarked) [Compound 1371]
### Response 30.5

### Prompt Another: CC(O)[C@H]1C(=O)N[C@H](Cc2ccc(Cl)cc2)C(=O)NC/C=C/c2ccccc2OCCN[C@@H](C2(C)CC2)C(=O)N1C (some centres unmarked) [Compound 1729]
### Response 54.8

### Prompt Another: CC(O)[C@H]1C(=O)N[C@H](Cc2c[nH]c3ccccc23)C(=O)N[C@H](C)CCc2ccc(F)cc2O[C@H](C)CN[C@@H](C2(C)CC2)C(=O)N1C (some centres unmarked) [Compound 1719]
### Response 23.4

### Prompt Another: CC(C)C1NCCOc2cc(F)ccc2C#CCNC(=O)C(Cc2c[nH]c3ccccc23)NC(=O)C(C(C)O)N(C)C1=O (centres unmarked) [Compound 1693]
### Response 83.8

### Prompt Another: CCC(C)C1NCCOc2ccccc2CCCNC(=O)C(Cc2ccc(Cl)cc2)NC(=O)C(C(C)O)N(C)C1=O (centres unmarked) [Compound 1699]
### Response 85.2
